biological target: human Serotonin, 5-Hydroxytryptamine Receptor 7 (5HT7), HTR7 (gene 3363) (UniProt P34969); experiment: NVS_GPCR_h5HT7: NovaScreen (NVS) G Protein-Coupled Receptor Assay for human Serotonin, 5-Hydroxytryptamine Receptor 7 (5HT7) (AID 2283255);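 note: hits reduce specific radioligand binding relative to DMSO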
Sequence (P34969 whole entry, looked up): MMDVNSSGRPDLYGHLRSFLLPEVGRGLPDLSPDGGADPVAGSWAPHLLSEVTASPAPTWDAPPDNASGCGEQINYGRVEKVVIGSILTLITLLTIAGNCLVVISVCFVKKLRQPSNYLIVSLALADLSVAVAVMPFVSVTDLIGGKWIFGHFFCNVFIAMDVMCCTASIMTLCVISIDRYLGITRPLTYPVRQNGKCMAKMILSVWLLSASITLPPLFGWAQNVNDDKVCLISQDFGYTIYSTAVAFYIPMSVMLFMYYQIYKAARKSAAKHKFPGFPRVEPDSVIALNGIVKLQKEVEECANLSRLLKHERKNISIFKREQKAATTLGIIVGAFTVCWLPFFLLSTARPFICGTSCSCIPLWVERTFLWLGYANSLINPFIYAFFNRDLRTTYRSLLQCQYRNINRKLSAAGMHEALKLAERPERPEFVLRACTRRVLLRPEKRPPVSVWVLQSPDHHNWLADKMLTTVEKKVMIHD
Records with an inconclusive call do not appear. Active and inactive are the calls of the source. Rule for the calls: active = hit-call score of the fitted dose curve at least 0.9, where 1 is the maximum; inconclusive = response in the unintended direction; inactive = score below 0.9.
The categories you may choose from are TRUE for active, FALSE for inactive

Inquiry: // outcome(item) with item = CCCCCCCCn1sccc1=O
Reply text: TRUE

Inquiry: Kindly provide the recorded test outcome for the following compound: [Cl-].[Cl-].[Hg+2]
Reply text: TRUE

Inquiry: For CCOC(=O)[C@]1(c2ccccc2)Oc2ccccc2[C@@H]1N , which call appears in the assay record?
Reply text: TRUE

Inquiry: Give the logged outcome of this assay for the following compound: CCN(CC)CCO
Reply text: FALSE

Inquiry: Fill in: this test's call for CCCCCCCCOC(=O)c1ccc(C(=O)OCCCCCCCC)c(C(=O)OCCCCCCCC)c1 is ___
Reply text: FALSE

Inquiry: Called result for CCC[CH2][Sn]([Cl])([CH2]CCC)[CH2]CCC
Reply text: TRUE
